experiment: Toxicity liver stage against HepG2, at 10uM; format: cell-based; set-up: test concentration 10 uM, cell line HepG2-A16-CD81EGFP; settings: human, HepG2-A16-CD81EGFP cells; read-out: INHIBITION
TEST READOUT: cytotoxicity at 10 µM (%)
Give the quantity in %, number only.

The following compounds have reported results that may help.
{"COMPOUND": "CN1CCN(c2ccc(F)cc2NC(=O)NCC[S+](C)[O-])CC1 (stereo unspecified)", "cytotoxicity at 10 µM / %": -10.7}
{"COMPOUND": "O=C(C1CCC1)N1C[C@@H](c2ccsc2)[C@@H]2CN(C3CCCCC3)CC[C@@H]21", "cytotoxicity at 10 µM / %": 1.32}
{"COMPOUND": "CN(C)c1cccc(C2CCCN2S(=O)(=O)c2cn(C)cn2)n1 (stereo unspecified)", "cytotoxicity at 10 µM / %": -28.7}
{"COMPOUND": "CCc1n[nH]c(C2CN(C(=O)CCn3ccccc3=O)CCO2)n1 (stereo unspecified)", "cytotoxicity at 10 µM / %": 0.00528}
{"COMPOUND": "CC(=O)N1CCCn2nc(CNS(=O)(=O)N3CCCCCC3)cc2C1", "cytotoxicity at 10 µM / %": 3.74}

Now for the compound whose cytotoxicity at 10 µM we want.
Task: Any idea what cytotoxicity at 10 µM was measured for Cc1nc2ccccc2n1Cc1cc(C(=O)NC2CCOC2)no1 (stereo unspecified) ?
Output: 4.45
